test: LD50 in the mouse; details: in vivo, ip; mouse, male, intraperitoneal
measuredProperty: LD50 (mg/kg)
Numbers only, in mg/kg.

LD50 reported for this compound "CN(C)CCSc1nc2ccccc2cc1-c1ccccc1.Cl" : 75

====

experiment: LD50 in the mouse; conditions: in vivo; mouse, male, oral
measuredProperty: LD50 (mg/kg)
Give bare numbers, in mg/kg.

LD50 measured on "CN(C)CCSc1nc2ccccc2cc1-c1ccccc1.Cl" = 485

====

experiment: LD50 in the rat; settings: in vivo, ip, female, intraperitoneal
measuredProperty: LD50 (mg/kg)
Give bare numbers, in mg/kg.

Memo: "CN(C)CCSc1nc2ccccc2cc1-c1ccccc1.Cl" , reported LD50: 128

====

assay: LD50 in the mouse; conditions: in vivo, ip; intraperitoneally in the mouse
Would you kindly list LD50 for each of these compounds?

CC(C)c1cc2ccccc2nc1SCCN(C)C.Cl ... ~100 mg/kg

Shifting focus to the compound that follows.
LD50 recorded for this compound, "COc1ccccc1-c1cc2ccccc2nc1SCCN(C)C.Cl" , is ~150 mg/kg

====

test: LD50 in the rat; conditions: in vivo, female, oral
measuredProperty: LD50

Consider "CN(C)CCSc1nc2ccccc2cc1-c1ccccc1.Cl" . Its measured LD50 is > 1000 mg/kg
